Test: Cytotoxicity against human CL1-5 cells after 72 hrs by WST1 assay
Format: functional, cell-based
Conditions: CL1-5, 72 h
pIC50: −log10 of the molar value.
endpoint-label: pIC50

1) Cc1ccc(NC(=O)Oc2ccc(N(CCCl)CCCl)cc2)cc1Nc1c2ccccc2nc2c(C)cccc12; 4.98
2) COc1ccc(Nc2c3ccccc3nc3c(C)cccc23)cc1NC(=O)Oc1ccc(N(CCCl)CCCl)cc1; 5.05
3) CC(C)OC(=O)Nc1cc(COC(=O)Nc2ccc(N(CCCl)CCCl)cc2)cc(Nc2c3ccccc3nc3ccccc23)c1; 5.18
4) Cc1cccc2c(Nc3cc(CO)cc(NC(=O)Oc4ccc(N(CCCl)CCCl)cc4)c3)c3ccccc3nc12; 4.90
5) O=C(Nc1cc(CO)cc(Nc2c3ccccc3nc3ccccc23)c1)Oc1ccc(N(CCCl)CCCl)cc1; 5.30
6) CCOC(=O)Nc1cc(COC(=O)Oc2ccc(N(CCCl)CCCl)cc2)cc(Nc2c3ccccc3nc3ccccc23)c1; 5.34

---

Test system: MX1
Assay: Cytotoxicity against human MX1 cells after 72 hrs by SRB assay
Assay type: functional, cell-based
Conditions: MX1, 72 h
Label 1 when IC50 is strictly below 200 nM; at or above that, label -1.

1) Cc1ccc(Nc2c3ccccc3nc3c(C)cccc23)cc1NC(=O)Oc1ccc(N(CCCl)CCCl)cc1; -1
2) CC(=O)O[C@H]1C(=O)[C@@]2(C)[C@H]([C@H](OC(=O)c3ccccc3)[C@]3(O)C[C@H](OC(=O)[C@H](O)[C@@H](NC(=O)c4ccccc4)c4ccccc4)C(C)=C1C3(C)C)[C@]1(OC(C)=O)CO[C@@H]1C[C@@H]2O [PACLITAXEL]; 1
3) Cc1cccc2c(Nc3cc(CO)cc(NC(=O)Oc4ccc(N(CCCl)CCCl)cc4)c3)c3ccccc3nc12; 1
4) Cc1c(NC(=O)Oc2ccc(N(CCCl)CCCl)cc2)cccc1Nc1c2ccccc2nc2c(C)cccc12; 1
5) CC[C@]1(O)C[C@@H]2CN(CCc3c([nH]c4ccccc34)[C@@](C(=O)OC)(c3cc4c(cc3OC)N(C)[C@H]3[C@@](O)(C(=O)OC)[C@H](OC(C)=O)[C@]5(CC)C=CCN6CC[C@]43[C@@H]65)C2)C1 [VINBLASTINE]; 1
6) OCc1cc(Nc2c3ccccc3nc3ccccc23)cc(OCCN(CCCl)CCCl)c1; 1
7) CCOC(=O)Nc1cc(COC(=O)Nc2ccc(N(CCCl)CCCl)cc2)cc(Nc2c3ccccc3nc3ccccc23)c1; -1
8) Nc1cc(CO)cc(Nc2c3ccccc3nc3ccccc23)c1; 1
9) COc1ccc(Nc2c3ccccc3nc3ccccc23)cc1NC(=O)Oc1ccc(N(CCCl)CCCl)cc1; 1
10) CC(C)OC(=O)Nc1cc(COC(=O)Nc2ccc(N(CCCl)CCCl)cc2)cc(Nc2c3ccccc3nc3ccccc23)c1; -1
11) CCOC(=O)Nc1cc(COC(=O)Oc2ccc(N(CCCl)CCCl)cc2)cc(Nc2c3ccccc3nc3ccccc23)c1; 1
12) COc1cc(NC(=O)Oc2ccc(N(CCCl)CCCl)cc2)cc(Nc2c3ccccc3nc3ccccc23)c1; -1
13) COc1ccc(NC(=O)Oc2ccc(N(CCCl)CCCl)cc2)cc1Nc1c2ccccc2nc2ccccc12; -1
14) O=C(Nc1cc(CO)cc(Nc2c3ccccc3nc3ccccc23)c1)Oc1ccc(N(CCCl)CCCl)cc1; 1
15) Cc1ccc(NC(=O)Oc2ccc(N(CCCl)CCCl)cc2)cc1Nc1c2ccccc2nc2c(C)cccc12; 1
